- Assay target: Tyrosine-protein phosphatase non-receptor type 22 (Homo sapiens) (UniProt Q9Y2R2)
- Sequence (Q9Y2R2 whole entry, looked up): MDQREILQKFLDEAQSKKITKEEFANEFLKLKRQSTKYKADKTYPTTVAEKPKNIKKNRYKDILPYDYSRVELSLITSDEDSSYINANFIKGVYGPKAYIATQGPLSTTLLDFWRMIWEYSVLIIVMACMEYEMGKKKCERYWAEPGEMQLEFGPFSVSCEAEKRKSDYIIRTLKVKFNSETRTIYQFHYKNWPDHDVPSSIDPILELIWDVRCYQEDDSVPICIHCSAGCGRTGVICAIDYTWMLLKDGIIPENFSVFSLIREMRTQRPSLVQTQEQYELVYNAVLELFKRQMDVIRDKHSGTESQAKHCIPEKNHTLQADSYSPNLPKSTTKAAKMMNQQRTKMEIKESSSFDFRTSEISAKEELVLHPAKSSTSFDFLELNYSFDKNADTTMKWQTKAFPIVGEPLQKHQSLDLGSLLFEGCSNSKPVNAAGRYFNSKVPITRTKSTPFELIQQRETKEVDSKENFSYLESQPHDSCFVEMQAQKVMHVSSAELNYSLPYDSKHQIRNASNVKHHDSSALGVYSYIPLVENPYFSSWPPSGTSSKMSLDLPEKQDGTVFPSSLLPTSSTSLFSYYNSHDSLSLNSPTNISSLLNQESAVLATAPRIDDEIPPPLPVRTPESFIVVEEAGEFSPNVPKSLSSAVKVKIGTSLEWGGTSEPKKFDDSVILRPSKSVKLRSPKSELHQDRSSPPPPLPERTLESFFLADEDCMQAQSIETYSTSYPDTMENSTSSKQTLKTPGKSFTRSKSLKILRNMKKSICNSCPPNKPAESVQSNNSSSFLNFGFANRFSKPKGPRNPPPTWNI
- Assay overview: PTPN22 lymphoid phosphatase activity blockers – biochemical, fluorescence intensity, uHTS (AID 1779);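 note: plate controls were vehicle with enzyme for no effect and no enzyme for full effect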
- Reported conditions: recombinant LYP phosphatase, at 11.5 µM, hits give high values
The whole screen tested about 290,000 compounds, of which about 160 (0.055%) were called active. The sample holds actives, similar compounds and a random draw of the others, so the mix is not that of the screen.
Reported inhibition is given for each of the following molecules.

Please review the entries below; each comes with its answer.
Molecule	inhibition
Cc1cc([N+](=O)[O-])ccc1N1C(=O)c2ccc(C(=O)Nc3ccccc3C(=O)O)cc2C1=O	-5.4% (inactive)
Cc1cc(N2C(=O)C(O)=C(C(=O)c3cc4ccccc4o3)C2c2ccc(Br)cc2)no1 (stereo not given)	2.4% (inactive)
CC/C(=N\O)c1c(O)c2c(n(-c3ccccc3)c1=O)CCCC2	3.9% (inactive)
CC1=NN(C(=O)c2ccc(Cn3cc([N+](=O)[O-])cn3)cc2)C(O)(C(F)(F)F)C1 (stereo not given)	-3.4% (inactive)

Moving on to the next molecule.
Request: Given the molecule CC1=NN(C(=O)Cn2ccc([N+](=O)[O-])n2)C(O)(C(F)(F)F)C1 (stereo not given) , what is its reported inhibition?
Response: -3.6% (inactive)

---

- Assay target: Tyrosine-protein phosphatase non-receptor type 22 (Homo sapiens) (UniProt Q9Y2R2)
- Assay overview: PTPN22 lymphoid phosphatase activity blockers – biochemical, fluorescence intensity, uHTS (AID 1779)
- Reported conditions: recombinant LYP phosphatase, at 11.5 µM
The whole screen tested about 290,000 compounds, of which about 160 (0.055%) were called active. Rule as the data show it: active = inhibition above about 50%; inactive = the rest. Only a selection was taken, and actives are over-represented in it overall.
Response enum: active, inactive

Molecule	Discrete label
Cn1c(C(=O)NC2CCCCC2)cc2sccc21	inactive
Nc1ccc2nc3c(=O)n(C4CCCCC4)c(=O)[nH]c3nc2c1	inactive
CC(C)(C)S(=O)(=O)c1cnc(N2CCCCC2)nc1N	inactive
CCC(=O)Nc1ccc2nc3c(=O)[nH]c(=S)[nH]c3nc2c1	inactive
COc1ccc(C(=O)Nc2ccc(Cl)cc2C(=O)NCc2ccco2)cc1OC	inactive
CC(=O)Nc1ccc(SCC(=O)Nc2ccc(Cl)cn2)cc1	active

For the next question, use this molecule.
Request: Called result for COc1ccc(N(C(=O)CNC(=O)c2ccco2)C(C(=O)NCC2CCCO2)c2ccccc2)cc1 (stereo not drawn)
Response: inactive

---

- Assay target: Tyrosine-protein phosphatase non-receptor type 22 (Homo sapiens) (UniProt Q9Y2R2)
- Assay overview: PTPN22 lymphoid phosphatase activity blockers – biochemical, fluorescence intensity, uHTS (AID 1779)
- Reported conditions: recombinant LYP phosphatase, at 11.5 µM
Hit rate of the full screen: of about 290,000 compounds, about 160 (0.055%) were called active. Cut-off read from the data, not from the text of the source: active = inhibition above about 50%; inactive = the rest. For the sample, actives were picked, then their nearest neighbours and some compounds at random.
Response enum: active, inactive

Completed entries (count: 2):
Compound	Discrete label
CC(=O)CCn1cnc([N+](=O)[O-])n1	inactive
CCn1cc(Br)c(C(=O)NC(=S)Nc2ccc(C(=O)OC)cc2)n1	active

Request: Called result for O=C(O)c1ccc(NC(=S)NC(=O)c2ccc(-c3ccc(Br)cc3)o2)cc1
Response: active

Request: # repeat for CCOC(=O)c1ccc(NC(=S)NC(=O)c2nn(CC)cc2Br)cc1
Response: inactive

Request: # repeat for O=C(NNc1c(Cl)cccc1Cl)c1cccs1
Response: inactive

Request: # repeat for CS(=O)(=O)N1CCN(C(=O)c2ccncc2)CC1
Response: inactive

Request: # repeat for O=C(NC(=S)Nc1ccc(CN2CCOCC2)cc1)c1ccc(-c2ccc(Br)cc2)o1
Response: inactive

Request: # repeat for COc1cc(CC(NC(C)=O)C(=O)NC2CCN(c3nc(C)cc(C)c3C#N)CC2)cc(OC)c1 (stereo unspecified)
Response: inactive

Request: # repeat for C[C@]12C=CC(=O)C=C1CC[C@@H]1[C@@H]2C(=O)C[C@@]2(C)[C@H]1CC[C@]2(O)C(=O)CO
Response: inactive

Request: # repeat for CCOC1(C)OCC(=O)[C@]2(CCC3C4CCC5=CC(=O)C=CC5(C)C4C(=O)CC32C)O1 (stereo partly specified)
Response: active

Request: # repeat for COc1ccc(C(=O)N2CCN(C(=O)c3ccncc3)CC2)cc1
Response: inactive

---

- Assay target: Tyrosine-protein phosphatase non-receptor type 22 (Homo sapiens) (UniProt Q9Y2R2)
- Assay overview: PTPN22 lymphoid phosphatase activity blockers – biochemical, fluorescence intensity, uHTS (AID 1779)
- Reported conditions: recombinant LYP phosphatase, at 11.5 µM
The whole screen tested about 290,000 compounds, of which about 160 (0.055%) were called active. Rule as the data show it: active = inhibition above about 50%; inactive = the rest. Many of the other results were omitted from the sample, so actives are more common in it than they were.
Response enum: active, inactive

Completed entries (count: 8):
Compound	Discrete label
CCOC(=O)c1ccc(-c2ccc3c(=O)c4ccccc4n(C)c3c2)cc1F	inactive
Nc1ccc(N2CCN(CCCCN3C(=O)C4CCCN4C3=O)CC2)cc1 (configuration not stated)	inactive
CCN(CC)S(=O)(=O)c1ccc(N2CCOCC2)c(NC(=O)Cc2cccc3ccccc23)c1	inactive
CCN1C(=O)C(CC(=O)Nc2ccc(OC)cc2)N(CCN2CCOCC2)C1=S (configuration not stated)	inactive
O=C(CNC(=O)c1ccc(F)cc1)NCc1ccc(Cl)cc1	inactive
COc1ccc(-c2sc3ccccc3c2C#CC2(O)CCCCC2)cc1	inactive
NS(=O)(=O)c1cc(C(=O)OCC(=O)N2CCOCC2)ccc1Cl	inactive
O=C(c1ccco1)N1CCN(C(=O)C2CC(=O)N(c3ccc(Cl)cc3)C2)CC1 (configuration not stated)	inactive

Request: Called result for CCc1cc(-c2n[nH]c(=S)n2CC(C)C)cs1
Response: inactive

---

- Assay target: Tyrosine-protein phosphatase non-receptor type 22 (Homo sapiens)
- Assay overview: PTPN22 lymphoid phosphatase activity blockers – biochemical, fluorescence intensity, uHTS (AID 1779);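 note: plate controls were vehicle with enzyme for no effect and no enzyme for full effect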
- Reported conditions: recombinant LYP phosphatase, at 11.5 µM
In all, about 290,000 compounds went through this assay and about 160 (0.055%) were called active. Rule as the data show it: active = inhibition above about 50%; inactive = the rest. The sample holds actives, similar compounds and a random draw of the others, so the mix is not that of the screen.
Response enum: 1 (active), 0 (inactive)

Completed entries (count: 5):
Compound	Discrete label
O=C(O)CCCN1C(=O)/C(=C\c2ccc(-c3nc4ccccc4s3)o2)SC1=S	0
CCCc1nc2c(=O)n(C)c(=O)nc-2n(C)n1	1
O=C(N/N=C/c1ccccn1)c1ccc(Cl)c(Cl)c1	1
CCNC(=S)N/N=C(\C)c1ccc2ccccc2c1OC(F)F	0
COc1ccc(C2C(C#N)=C(N)Oc3cc(C)n(CCN4CCOCC4)c(=O)c32)cc1OC (stereo not drawn)	0

Request: Called result for O=C(Nc1nccs1)c1ccc(S(=O)(=O)NCc2cccs2)cc1
Response: 1

Request: # repeat for O=C(NC(=S)Nc1ccc(S(=O)(=O)Nc2nccs2)cc1)C1CC1
Response: 0

---

- Assay target: Tyrosine-protein phosphatase non-receptor type 22 (Homo sapiens)
- Assay overview: PTPN22 lymphoid phosphatase activity blockers – biochemical, fluorescence intensity, uHTS (AID 1779);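 note: plate controls were vehicle with enzyme for no effect and no enzyme for full effect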
- Reported conditions: recombinant LYP phosphatase, at 11.5 µM, hits give high values
The whole screen tested about 290,000 compounds, of which about 160 (0.055%) were called active. The full list was thinned out, with actives kept by preference.
Recorded metric: inhibition

Request: Given the molecule Cc1c(C)n(C(=O)CN2CCN(c3ccccn3)CC2)c2ccccc12 , what is its reported inhibition?
Response: 5.2% (inactive)

Request: # repeat for NC(=O)C(c1cccc(Cl)c1)c1ncc(C(F)(F)F)cc1Cl (stereo unspecified)
Response: -10.5% (inactive)

---

- Assay target: Tyrosine-protein phosphatase non-receptor type 22 (Homo sapiens) (UniProt Q9Y2R2)
- Assay overview: PTPN22 lymphoid phosphatase activity blockers – biochemical, fluorescence intensity, uHTS (AID 1779);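 note: plate controls were vehicle with enzyme for no effect and no enzyme for full effect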
- Reported conditions: recombinant LYP phosphatase, at 11.5 µM, hits give high values
Out of some 290,000 compounds screened, about 160 (0.055%) were called active. The entries come from a sample that favours actives as a whole.
Reported inhibition is given for each of the following compounds.
Report as a plain number; the unit % is understood.

Please review the entries below; each comes with its answer.
Compound	inhibition (%)
COc1ccc(-c2nc(SC)n(C(=O)c3ccco3)n2)cc1	-4.5
N#C/C(=C\c1ccc(OCc2ccc(Br)cc2)cc1)C(=O)Nc1cccc(C(=O)O)c1	93.4
N#C/C(=C/c1ccc(OCc2ccc(C(=O)O)cc2)cc1)C(=O)Nc1ccccc1	-4.6
CCOc1cc(/C=C(\C#N)C(=O)Nc2cccc(C(=O)O)c2)ccc1OCc1ccccc1Cl	-2.4
CCCC[N+](C)(C)CCC(=O)NC(C)(C)CS(=O)(=O)[O-]	-4.3
N#C/C(=C\c1ccccc1OCc1ccc(C(=O)O)cc1)c1ccccc1	-4.4
CC(=O)c1ccc(N2C(=O)[C@@H]3C(CCC(N)=O)NC4(C(=O)Nc5c4ccc(Cl)c5C)[C@@H]3C2=O)cc1 (stereo not given in full)	-3.9
COc1cc(/C=C(\C#N)C(=O)Nc2cccc(C(=O)O)c2)ccc1OCc1ccc(C)cc1	-1.7

Request: Lookup: inhibition / Tyrosine-protein phosphatase non-receptor type 22 (Homo sapiens) (UniProt Q9Y2R2) / COc1cc(/C=C(\C#N)C(=O)Nc2cccc(C(=O)O)c2)ccc1OCc1ccc(Cl)cc1
Response: 15

Request: # repeat for N#C/C(=C/c1ccccc1OCc1ccc(F)cc1)c1ccc(C(=O)O)cc1
Response: -6.7
